# assayed_system: Serotonin 5-HT2A (human) (Homo sapiens (Human))
# method_notes: 5-HT2A receptor binding, [3H]-ketanserin competition in membrane fractions
# condition_set: 1 nM [3H]-ketanserin, Cheng-Prusoff, N=1-3
measurement_label: 5-HT2A pKi ± SEM
// keep it numeric: no unit symbol after the value

Q: So what's the measured 5-HT2A pKi ± SEM for this one? CC(C)N(C)CCc1c[nH]c2ccc(F)cc12
Ans: 6.36

Q: What about this compound? CCCN1CCC[C@@H]1Cc1c[nH]c2ccc(F)cc12
Ans: 6.60

Q: Item: CN1CC(c2c[nH]c3ccc(F)cc23)C1
Ans: 6.30

Q: Then what about the compound CCCN(CC)CCc1c[nH]c2c(F)cc(F)cc12 ?
Ans: 6.30

Q: // next record CC(CN)c1c[nH]c2ccc(F)cc12 (centres unmarked)
Ans: 5.41

====

# assayed_system: 5-HT2B (Homo sapiens (Human))
# method_notes: 5-HT2B Gq-mediated calcium flux functional assay
# Type: cell-based
Record form. Attribute: pEC50. Fill in for each entry.
# log scale: pEC50 equals minus log10 of the concentration in mol/L

Q: Look at this compound and give its reported pEC50. CCCN(CCc1c[nH]c2ccc(F)cc12)C(C)C [Example 4]
Ans: 9.12

Q: Query C=CCN(CC)CCc1c[nH]c2ccc(F)cc12 [compound 36] next
Ans: 8.76

Q: Follow-up item: C=CCN(C)CCc1c[nH]c2ccc(F)cc12 [Example 10]
Ans: 9.02

Q: Ok, now CCC(C)N(CCc1c[nH]c2ccc(F)cc12)C1CC1 (centres unmarked) [compound 172]
Ans: 8.19

Q: Likewise for CCN(C)CCc1c[nH]c2cc(F)c(Cl)cc12 [compound 179] ?
Ans: 7.97

====

# assayed_system: 5-HT2B (Homo sapiens (Human), UniProt P41595)
# Sequence (P41595 whole entry): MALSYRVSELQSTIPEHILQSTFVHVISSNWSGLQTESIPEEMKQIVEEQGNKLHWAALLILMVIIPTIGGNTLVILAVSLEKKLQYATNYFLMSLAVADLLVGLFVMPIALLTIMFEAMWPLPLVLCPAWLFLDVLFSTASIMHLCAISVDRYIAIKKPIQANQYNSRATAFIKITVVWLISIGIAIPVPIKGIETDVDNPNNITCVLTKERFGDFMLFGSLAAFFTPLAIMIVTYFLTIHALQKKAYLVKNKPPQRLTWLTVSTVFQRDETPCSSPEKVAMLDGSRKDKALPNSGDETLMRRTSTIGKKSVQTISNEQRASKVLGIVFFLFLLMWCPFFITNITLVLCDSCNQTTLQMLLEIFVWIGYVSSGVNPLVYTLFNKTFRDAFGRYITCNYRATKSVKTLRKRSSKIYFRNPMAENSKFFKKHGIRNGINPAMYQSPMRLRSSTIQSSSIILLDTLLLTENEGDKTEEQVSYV
# method_notes: 5-HT2B Gq-mediated calcium flux functional assay
# Format: cell-based
# condition_set: IA = Inactive; N=1-3
measurement_label: 5-HT2B-Ca2+ FLUX Emax (% 5-HT)

Q: What does the record list as 5-HT2B-Ca2+ FLUX Emax (% 5-HT) for CC(C)N(C)CCc1c[nH]c2ccc(F)cc12 ?
Ans: 68.6 ± 1.7 % 5-HT

Q: # repeat for CCCN(CCc1c[nH]c2ccc(F)cc12)C(C)CC (stereo not shown)
Ans: 98.9 ± 1.6 % 5-HT

Q: Please give the result for CCCN(CCc1c[nH]c2ccc(F)cc12)C(C)C too.
Ans: 105.60 ± 0.7 % 5-HT

Q: Now this one: Fc1ccc2[nH]cc(CCN(C3CCC3)C3CC3)c2c1
Ans: 82.8 ± 0.8 % 5-HT

Q: Same lookup for CCCN(CC)CCc1c[nH]c2c(F)cc(C)cc12 , please.
Ans: 95.9 ± 0.7 % 5-HT

Q: Again, but for C=CC(C)N(C)CCc1c[nH]c2ccc(F)cc12 (stereo not shown)
Ans: 27.7 ± 0.5 % 5-HT

Q: What about CCN(CCc1c[nH]c2ccc(F)cc12)C1CCC1 ?
Ans: 96.5 ± 1.4 % 5-HT

Values from patent US20240286998A1
